- SYSTEM UNDER TEST: Sentrin-specific protease 6 (Homo sapiens);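 also: Luminescence-based dose-response confirmatory assay of SENP6 inhibition, following up an ultra-high-throughput screen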
- Sequence (Q9GZR1 whole entry): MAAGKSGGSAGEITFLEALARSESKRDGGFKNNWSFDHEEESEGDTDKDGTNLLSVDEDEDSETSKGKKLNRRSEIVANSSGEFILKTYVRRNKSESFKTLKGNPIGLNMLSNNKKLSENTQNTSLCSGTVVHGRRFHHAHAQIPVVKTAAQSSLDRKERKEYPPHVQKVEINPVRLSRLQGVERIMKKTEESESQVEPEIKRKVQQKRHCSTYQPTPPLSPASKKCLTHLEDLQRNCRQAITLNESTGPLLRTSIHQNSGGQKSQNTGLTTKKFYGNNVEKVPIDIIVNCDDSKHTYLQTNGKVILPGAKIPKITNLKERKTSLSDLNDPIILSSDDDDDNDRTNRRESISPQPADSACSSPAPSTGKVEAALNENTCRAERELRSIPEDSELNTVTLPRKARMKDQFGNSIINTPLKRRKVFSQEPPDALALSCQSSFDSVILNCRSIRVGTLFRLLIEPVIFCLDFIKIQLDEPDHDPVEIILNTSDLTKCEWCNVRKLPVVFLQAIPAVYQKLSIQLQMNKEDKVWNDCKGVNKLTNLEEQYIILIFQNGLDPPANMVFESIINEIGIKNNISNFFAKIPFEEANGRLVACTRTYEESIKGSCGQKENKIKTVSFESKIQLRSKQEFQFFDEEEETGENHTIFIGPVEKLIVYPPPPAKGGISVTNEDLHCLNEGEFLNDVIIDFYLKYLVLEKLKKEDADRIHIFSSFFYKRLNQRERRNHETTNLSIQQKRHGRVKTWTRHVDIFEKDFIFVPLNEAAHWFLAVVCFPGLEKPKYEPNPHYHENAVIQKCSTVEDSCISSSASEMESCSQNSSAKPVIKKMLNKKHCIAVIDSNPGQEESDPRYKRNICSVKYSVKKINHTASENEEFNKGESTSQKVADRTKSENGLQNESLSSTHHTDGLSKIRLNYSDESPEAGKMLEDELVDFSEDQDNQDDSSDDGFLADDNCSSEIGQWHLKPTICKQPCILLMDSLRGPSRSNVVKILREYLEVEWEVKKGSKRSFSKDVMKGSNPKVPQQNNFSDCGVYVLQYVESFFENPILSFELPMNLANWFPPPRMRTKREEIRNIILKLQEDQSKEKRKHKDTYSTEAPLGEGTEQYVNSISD
- Type: functional
Calls of active or inactive are those of the source.
Respond using exactly one of the listed classes: 1 (active), -1 (inactive)

Below, 3 compounds whose answers are already recorded.
{"columns": ["COMPOUND", "SYSTEM UNDER TEST", "CATEGORY"],
 "data": [
  ["O=C(Nc1cccc(F)c1)c1ccc(-c2ccccc2Cl)o1", "Sentrin-specific protease 6 (Homo sapiens)", 1],
  ["c1ccc(Nc2nnc(-c3cccc4ccccc34)o2)cc1", "Sentrin-specific protease 6 (Homo sapiens)", -1],
  ["Cc1ccnc2ccc(-c3nc4ccccc4o3)cc12", "Sentrin-specific protease 6 (Homo sapiens)", 1]
]}

Q: Name the outcome recorded for CC(=O)NC1=C(N(C)C2CCS(=O)(=O)C2)C(=O)c2ccccc2C1=O (stereo unspecified) in the assay.
Ans: 1

Q: Name the outcome recorded for Cc1cc(O)c(-c2cc(C(=O)Nc3cccnc3)[nH]n2)cc1C in the assay.
Ans: -1

Q: Name the outcome recorded for COc1ccc(-c2nnc(SCc3ccccc3F)o2)cc1 in the assay.
Ans: 1

* * *

- ASSAY METHOD TEXT: luciferase reporter signal suppression in cells – H4 neuroglioma cells, luminescence, dose response (AID 1990)
- Assay type: functional, cell-based
The source made the active and inactive calls.
OBSERVABLE: EC50

{"columns": ["COMPOUND", "EC50"],
 "data": [
  ["COCC(C)OC(=O)C(C#N)c1nc2ccccc2nc1N1CCN(Cc2ccccc2)CC1 (centres undefined)", "17.6 µM (active)"]
]}

Q: What value of EC50 has been reported for the following compound? COC(=O)c1ccc(C)c(NS(=O)(=O)c2ccc3c(c2)OCCO3)c1
Ans: 8.4 µM (inconclusive)

Q: What value of EC50 has been reported for the following compound? COC(=O)C1CC23C=CCN4CCC5(c6ccccc6NC15C2C)C43 (centres undefined)
Ans: 4.2 µM (active)

* * *

- SYSTEM UNDER TEST: Sentrin-specific protease 1 (Homo sapiens)
- Sequence (Q9P0U3 whole entry, the tested form may be a part): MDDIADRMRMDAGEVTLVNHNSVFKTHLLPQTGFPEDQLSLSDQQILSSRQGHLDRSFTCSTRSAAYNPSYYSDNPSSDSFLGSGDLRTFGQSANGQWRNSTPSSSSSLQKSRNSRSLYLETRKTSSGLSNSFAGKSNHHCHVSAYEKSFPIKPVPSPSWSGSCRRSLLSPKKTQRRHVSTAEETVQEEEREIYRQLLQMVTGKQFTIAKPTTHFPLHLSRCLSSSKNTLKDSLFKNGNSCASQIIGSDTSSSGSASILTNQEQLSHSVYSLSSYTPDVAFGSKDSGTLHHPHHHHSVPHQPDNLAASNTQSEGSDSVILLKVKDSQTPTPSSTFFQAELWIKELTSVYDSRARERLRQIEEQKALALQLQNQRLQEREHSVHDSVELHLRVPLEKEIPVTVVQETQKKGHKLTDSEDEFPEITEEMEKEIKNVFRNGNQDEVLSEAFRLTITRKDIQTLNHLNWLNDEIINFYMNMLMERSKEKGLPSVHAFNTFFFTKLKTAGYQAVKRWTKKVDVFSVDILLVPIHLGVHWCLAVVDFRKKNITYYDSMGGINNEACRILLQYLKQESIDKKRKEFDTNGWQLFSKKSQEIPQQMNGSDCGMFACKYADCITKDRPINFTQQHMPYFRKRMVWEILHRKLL
- ASSAY METHOD TEXT: SENP1 catalytic domain blockers, concentration series – biochemical, kinetic FRET, dose response (AID 651697)
- Type: functional
- STUDY CONDITIONS: read-out: IC50_Mean
Activity calls are given as the source filed them.
Respond using exactly one of the listed classes: active, inactive

Below, 3 compounds whose answers are already recorded.
{"columns": ["COMPOUND", "CATEGORY"],
 "data": [
  ["COc1ccccc1C1C2=C(N=c3s/c(=C/c4cccc(OCC(=O)O)c4)c(=O)n31)c1ccccc1CC2 (centres undefined)", "active"],
  ["c1cc(Nc2cccc3nccnc23)c2nccnc2c1", "inactive"],
  ["CCOc1cc(/C=C2\\N=C3CCCCCN3C2=O)ccc1O", "active"]
]}

Q: Name the outcome recorded for O=C1C=C(c2cccc(Cl)c2O)C[C@@H](c2ccc(Cl)cc2)C1 in the assay.
Ans: active

* * *

- ASSAY METHOD TEXT: alpha-synuclein stem-loop luciferase translation blockers – H4 neuroglioma cells, luminescence, confirmation (AID 1988)
- Format: functional, cell-based
Active and inactive are the calls of the source.
OBSERVABLE: EC50

The following compounds have reported results that may help.
{"columns": ["COMPOUND", "OBSERVED MEASUREMENT"],
 "data": [
  ["COc1c(Br)cc([N+](=O)[O-])c(OC)c1C(=O)NC(=O)Nc1cc(Cl)cc(Cl)c1", "15.1 µM (active)"],
  ["O=C(CN1CCN(Cc2ccccc2Cl)C1=O)NCc1ccccn1", "> 120 µM (not active)"],
  ["CC(Nc1ccccc1CO)C(=O)Nc1cccc(Cl)c1Cl (configuration not stated)", "12.9 µM (active)"],
  ["COC(=O)c1ccccc1NC(=O)C(C)n1nc(C)c2c(C)n(-c3ccccc3)nc2c1=O (configuration not stated)", "22.9 µM (active)"],
  ["COC(=O)c1ccc(C)c(NS(=O)(=O)c2ccc3c(c2)OCCO3)c1", "1.3 µM (active)"],
  ["CN(C)c1ccc(Nc2nc(N)c3ccccc3n2)cc1", "10.1 µM (inconclusive)"]
]}

In the following, a different compound is considered.
Q: What value of EC50 has been reported for the following compound? CCC(C)C1NC(=S)N(C2CCCCC2)C1=O (configuration not stated)
Ans: > 120 µM (not active)

* * *

- SYSTEM UNDER TEST: Aurora kinase B (Homo sapiens, UniProt Q96GD4)
- Sequence (Q96GD4 whole entry): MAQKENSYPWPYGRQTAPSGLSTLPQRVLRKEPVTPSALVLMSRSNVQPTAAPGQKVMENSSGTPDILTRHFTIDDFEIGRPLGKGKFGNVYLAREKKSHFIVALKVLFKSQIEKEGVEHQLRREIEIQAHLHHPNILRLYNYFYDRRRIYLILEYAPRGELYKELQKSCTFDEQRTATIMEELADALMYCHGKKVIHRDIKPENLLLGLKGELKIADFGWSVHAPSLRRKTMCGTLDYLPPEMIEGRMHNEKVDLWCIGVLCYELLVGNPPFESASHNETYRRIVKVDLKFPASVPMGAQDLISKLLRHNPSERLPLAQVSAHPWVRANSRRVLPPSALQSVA
- Type: functional
Active and inactive are the calls of the source.
Ki values, listed per item

The following compounds have reported results that may help.
{"columns": ["COMPOUND", "Ki"],
 "data": [
  ["O=C(NCCc1cccs1)N1CC=C(c2c[nH]c3ncccc23)CC1", "> 3980 nM (inactive)"],
  ["NC1CCN(C(=O)c2ccc3c(c2)[nH]c(=O)c2cccn23)CC1", "158 nM (active)"],
  ["CC(Nc1cncc(-n2cnc3ccccc32)n1)c1ccc(F)cc1 (centres undefined)", "79.4 nM (active)"]
]}

In the following, a different compound is considered.
Q: What value of Ki has been reported for the following compound? O=S(=O)(Nc1ccc2c(c1)C(=NO)c1ccccc1-2)c1cccc(Cl)c1
Ans: 3.98 nM (active)

* * *

EC50 values, listed per item
- SYSTEM UNDER TEST: Streptokinase A (Streptococcus pyogenes serotype M1, UniProt P10520)
- Sequence (P10520 whole entry): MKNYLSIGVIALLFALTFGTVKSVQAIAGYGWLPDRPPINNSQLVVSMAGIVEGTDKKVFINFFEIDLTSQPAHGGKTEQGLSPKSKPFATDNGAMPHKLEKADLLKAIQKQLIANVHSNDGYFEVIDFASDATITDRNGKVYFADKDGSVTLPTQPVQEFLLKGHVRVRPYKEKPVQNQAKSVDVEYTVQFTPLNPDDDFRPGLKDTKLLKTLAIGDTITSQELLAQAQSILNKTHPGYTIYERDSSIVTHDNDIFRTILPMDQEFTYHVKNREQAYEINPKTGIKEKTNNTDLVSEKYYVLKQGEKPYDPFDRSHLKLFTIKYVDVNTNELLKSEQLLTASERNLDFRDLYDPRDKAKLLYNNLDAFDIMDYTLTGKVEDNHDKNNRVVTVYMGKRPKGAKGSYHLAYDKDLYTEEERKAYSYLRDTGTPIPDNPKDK
- ASSAY METHOD TEXT: viability-normalized secreted streptokinase activity reduction – plasminogen activation absorbance, OD405, dose response (AID 1914);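 also: secreted streptokinase activity via plasminogen activation per viability signal from cell pellet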
- Format: functional, Streptococcus pyogenes M1 GAS
Active and inactive are the calls of the source.

The following molecules have reported results that may help.
{"columns": ["MOLECULE", "SYSTEM UNDER TEST", "OBSERVED MEASUREMENT"],
 "data": [
  ["C/N=C1\\C(=O)c2ccccc2C(O)=C1N(C(C)=O)c1ccc(Br)cc1", "Streptokinase A (Streptococcus pyogenes serotype M1, UniProt P10520)", "23.9 µM (active)"],
  ["COCCOC(=O)c1c(C)nc(SCC(=O)Nc2ccc(C)cc2)c(C#N)c1-c1ccco1", "Streptokinase A (Streptococcus pyogenes serotype M1, UniProt P10520)", "> 150 µM (not active)"],
  ["Cc1nn(-c2ccc(Cl)cc2)c(Cl)c1/C=N/NC(=O)c1ccc(NS(=O)(=O)c2cccs2)cc1", "Streptokinase A (Streptococcus pyogenes serotype M1, UniProt P10520)", "> 150 µM (not active)"],
  ["Brc1cc(-c2ccccc2)nc(-c2ccccc2)n1", "Streptokinase A (Streptococcus pyogenes serotype M1, UniProt P10520)", "> 150 µM (not active)"],
  ["CCc1nnc(NS(=O)(=O)c2ccc(NCc3cc(Cl)cc(Cl)c3O)cc2)s1", "Streptokinase A (Streptococcus pyogenes serotype M1, UniProt P10520)", "50.8 µM (active)"]
]}

Q: What value of EC50 has been reported for the following molecule? O=c1c2c(nc(NCCO)n1CC1CCCCC1)-c1ccccc1CC21CCCC1
Ans: 3.48 µM (active)

* * *

- SYSTEM UNDER TEST: Protein skinhead-1 (Caenorhabditis elegans, UniProt P34707)
- Sequence (P34707 whole entry): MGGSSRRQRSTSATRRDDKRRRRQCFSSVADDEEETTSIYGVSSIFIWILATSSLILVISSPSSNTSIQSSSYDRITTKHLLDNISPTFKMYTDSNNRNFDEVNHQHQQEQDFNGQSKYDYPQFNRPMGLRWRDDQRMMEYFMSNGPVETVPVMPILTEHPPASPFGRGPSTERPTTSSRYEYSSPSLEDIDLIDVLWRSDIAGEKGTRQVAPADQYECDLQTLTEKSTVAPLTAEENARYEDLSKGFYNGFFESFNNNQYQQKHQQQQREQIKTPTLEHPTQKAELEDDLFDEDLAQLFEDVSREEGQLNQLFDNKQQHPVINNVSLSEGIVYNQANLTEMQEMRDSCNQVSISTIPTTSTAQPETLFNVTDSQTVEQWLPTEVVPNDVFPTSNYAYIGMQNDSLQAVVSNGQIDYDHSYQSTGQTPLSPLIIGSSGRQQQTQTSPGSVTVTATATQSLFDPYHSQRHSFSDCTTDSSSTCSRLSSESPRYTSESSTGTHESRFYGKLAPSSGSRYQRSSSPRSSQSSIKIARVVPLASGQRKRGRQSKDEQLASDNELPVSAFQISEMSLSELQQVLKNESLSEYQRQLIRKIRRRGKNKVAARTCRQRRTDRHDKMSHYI
- Type: functional
Calls of active or inactive are those of the source.
Respond using exactly one of the listed classes: 1 (active), 0 (inactive)

Below, 6 molecules whose answers are already recorded.
{"columns": ["MOLECULE", "SYSTEM UNDER TEST", "CATEGORY"],
 "data": [
  ["COc1ccc(C(=O)Nc2nc(-c3cccs3)cs2)cc1", "Protein skinhead-1 (Caenorhabditis elegans, UniProt P34707)", 0],
  ["O=C(Nc1nc2c(ccc3ccccc32)s1)c1ccco1", "Protein skinhead-1 (Caenorhabditis elegans, UniProt P34707)", 1],
  ["CCN(CC)c1ccc(C(=S)N2CCN(c3ccccc3)CC2)cc1", "Protein skinhead-1 (Caenorhabditis elegans, UniProt P34707)", 0],
  ["CC(=O)N(C1=NCCCS1)c1ccc(F)cc1", "Protein skinhead-1 (Caenorhabditis elegans, UniProt P34707)", 0],
  ["COc1cc2nc(C3CC3)n(NC(=O)c3ccc(Cl)cc3)c(=O)c2cc1OC", "Protein skinhead-1 (Caenorhabditis elegans, UniProt P34707)", 0],
  ["CCOC(=O)NCc1ccc2c(c1)cc(C)n2C", "Protein skinhead-1 (Caenorhabditis elegans, UniProt P34707)", 0]
]}

Q: Name the outcome recorded for CC(C)CC(=O)Nc1ccc(Nc2ccccc2)cc1 in the assay.
Ans: 0

Q: Name the outcome recorded for FC(F)(F)c1ccccc1Cc1c(-c2ccccc2)nc2ccc(Br)cn12 in the assay.
Ans: 0
